# TEST_SUMMARY: Enzyme kinetic study of 7β-HSDH mutants, DHCA kinetics with NADH as cofactor
# Type: biochemical
# CONDITIONS_USED: 0.5 mM NADH, substrate DHCA
Some molecules, each annotated with its measured vmax (maximal specific enzyme activity).
The reply should contain only the number, in U mg^−1.

Worked cases, answers included:
{"MOLECULE": "G39D: 7β-HSDH from Collinsella aerofaciens with substitution G39D, produced as described in WO 2012/080504 (protein) MNLREKYGEWGLILGATEGVGKAFCEKIAAGGMNVVMVDRREEKLNVLAGEIRETYGVETKVVRADFSQPGAAETVFAATEGLDMGFMSYVACLHSFGKIQDTPWEKHEAMINVNVVTFLKCFHHYMRIFAAQDRGAVINVSSMTGISSSPWNGQYGAGKAFILKMTEAVACECEGTGVDVEVITLGTTLTPSLLSNLPGGPQGEAVMKIALTPEECVDEAFEKLGKELSVIAGQRNKDSVHDWKANHTEDEYIRYMGSFYRD", "REPORTED_PROPERTY": "vmax (maximal specific enzyme activity)", "TEST_VALUE": 2.90}
{"MOLECULE": "DFK: 7β-HSDH mutant with amino acid substitutions G39D R40F R41K compared to the wild type sequence (protein) MNLREKYGEWGLILGATEGVGKAFCEKIAAGGMNVVMVDFKEEKLNVLAGEIRETYGVETKVVRADFSQPGAAETVFAATEGLDMGFMSYVACLHSFGKIQDTPWEKHEAMINVNVVTFLKCFHHYMRIFAAQDRGAVINVSSMTGISSSPWNGQYGAGKAFILKMTEAVACECEGTGVDVEVITLGTTLTPSLLSNLPGGPQGEAVMKIALTPEECVDEAFEKLGKELSVIAGQRNKDSVHDWKANHTEDEYIRYMGSFYRD", "REPORTED_PROPERTY": "vmax (maximal specific enzyme activity)", "TEST_VALUE": 5.91}

// moving on: another record for vmax (maximal specific enzyme activity)
Request: Which value of vmax (maximal specific enzyme activity) has been reported for DF: 7β-HSDH mutant with amino acid substitutions G39D R40F compared to the wild type sequence (protein) MNLREKYGEWGLILGATEGVGKAFCEKIAAGGMNVVMVDFREEKLNVLAGEIRETYGVETKVVRADFSQPGAAETVFAATEGLDMGFMSYVACLHSFGKIQDTPWEKHEAMINVNVVTFLKCFHHYMRIFAAQDRGAVINVSSMTGISSSPWNGQYGAGKAFILKMTEAVACECEGTGVDVEVITLGTTLTPSLLSNLPGGPQGEAVMKIALTPEECVDEAFEKLGKELSVIAGQRNKDSVHDWKANHTEDEYIRYMGSFYRD in the records?
Result: 3.70
